Assay: Aqueous solubility using UV analysis
Format: physicochemical
Reported solubility values for the following compounds.
Kindly answer with a numeric value in µM, unit omitted.

sample.smiles | parameter.measured | value.reported
CC(C)C[C@H](NC(=O)OCc1cccnc1)C(=O)N[C@@H](Cc1ccccc1)C(=O)CSC(C)(C)C | solubility | 378
CC(C)(C)SCC(=O)[C@H](Cc1ccccc1)NC(=O)[C@H](Cc1ccccc1)NC(=O)OCc1cccnc1 | solubility | 288

[in] I am curious: what solubility value has been reported for `CC(C)(C)SCC(=O)[C@H](Cc1ccccc1)NC(=O)[C@H](Cc1ccccc1)NC(=O)OCc1ccccc1` ?
[out] 70

====

Reported pKi values for the following compounds.
Target: Procathepsin L (Homo sapiens)
Sequence (P07711 whole entry): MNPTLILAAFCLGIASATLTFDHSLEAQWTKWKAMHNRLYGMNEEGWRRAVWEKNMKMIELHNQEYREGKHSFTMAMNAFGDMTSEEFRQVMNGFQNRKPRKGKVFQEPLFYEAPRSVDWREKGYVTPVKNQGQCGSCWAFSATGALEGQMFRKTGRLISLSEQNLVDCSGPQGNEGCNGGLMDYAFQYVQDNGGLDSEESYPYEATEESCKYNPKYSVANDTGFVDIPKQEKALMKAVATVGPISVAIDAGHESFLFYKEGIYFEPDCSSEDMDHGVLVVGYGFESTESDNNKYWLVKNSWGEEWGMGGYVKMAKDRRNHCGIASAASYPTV
pKi field: float, defined as -log10 of concentration (mol/L).

Solved cases (3 shown):
sample.smiles | study.system | value.reported
CC(C)C[C@H](NC(=O)OCc1cccnc1)C(=O)N[C@@H](CCc1ccccc1)C(=O)CSCCCc1ccccc1 | Procathepsin L (Homo sapiens) | 6.84
CC(C)C[C@H](NC(=O)OCc1ccncc1)C(=O)N[C@@H](Cc1ccccc1)C(=O)CSC(C)(C)C | Procathepsin L (Homo sapiens) | 7.54
O=C(N[C@@H](Cc1ccccc1)C(=O)N[C@@H](Cc1ccccc1)C(=O)CSCCCc1ccccc1)OCc1ccccc1 | Procathepsin L (Homo sapiens) | 8.55

Let us move to another entry and its pKi.
[in] Observed pKi on Procathepsin L (Homo sapiens) for `CCOC(=O)CCSCC(=O)[C@H](Cc1ccccc1)NC(=O)[C@H](Cc1ccccc1)NC(=O)OCc1ccccc1` , please.
[out] 8.82

====

Reported pKi values for the following molecules.
Target: Cruzipain (Trypanosoma cruzi, UniProt P25779)
Sequence (P25779 whole entry): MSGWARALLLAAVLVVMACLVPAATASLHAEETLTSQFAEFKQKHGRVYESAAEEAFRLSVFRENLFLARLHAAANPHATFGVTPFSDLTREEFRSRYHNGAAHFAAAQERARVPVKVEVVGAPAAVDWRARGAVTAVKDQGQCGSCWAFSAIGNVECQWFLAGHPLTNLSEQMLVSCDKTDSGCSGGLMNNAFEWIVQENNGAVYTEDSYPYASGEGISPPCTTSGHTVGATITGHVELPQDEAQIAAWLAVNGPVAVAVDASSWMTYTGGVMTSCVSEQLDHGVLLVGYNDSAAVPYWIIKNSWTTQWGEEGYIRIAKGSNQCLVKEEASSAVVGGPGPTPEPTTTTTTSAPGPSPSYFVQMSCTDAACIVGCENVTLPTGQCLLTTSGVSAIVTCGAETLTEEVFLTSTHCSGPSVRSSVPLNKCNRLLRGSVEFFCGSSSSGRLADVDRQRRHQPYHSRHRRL
Experiment: Inhibitory activity against cruzain, the major cysteine protease found in Trypanosoma cruzi
pKi field: float, defined as -log10 of concentration (mol/L).

Solved cases (4 shown):
molecule | study.system | pKi
CC(C)C[C@H](NC(=O)OCc1ccccc1)C(=O)N[C@@H](Cc1ccccc1)C(=O)CSC(C)C | Cruzipain (Trypanosoma cruzi, UniProt P25779) | 8.11
CNC(=O)CSCC(=O)[C@H](Cc1ccccc1)NC(=O)[C@H](Cc1ccccc1)NC(=O)OCc1ccccc1 | Cruzipain (Trypanosoma cruzi, UniProt P25779) | 7.82
CC(C)C[C@H](NC(=O)OCc1ccccc1)C(=O)N[C@@H](Cc1ccccc1)C(=O)CSC(C)(C)C | Cruzipain (Trypanosoma cruzi, UniProt P25779) | 8.89
CCC(C)SCC(=O)[C@H](Cc1ccccc1)NC(=O)[C@H](Cc1ccccc1)NC(=O)OCc1ccccc1 (stereo not given in full) | Cruzipain (Trypanosoma cruzi, UniProt P25779) | 8.24

Let us move to another entry and its pKi.
[in] Observed pKi on Cruzipain (Trypanosoma cruzi, UniProt P25779) for `CC(C)C[C@H](NC(=O)OCc1cccnc1)C(=O)N[C@@H](CCc1ccccc1)C(=O)CSC(C)(C)C` , please.
[out] 8.70

====

Reported pKi values, Cruzipain (Trypanosoma cruzi).
pKi field: float, defined as -log10 of concentration (mol/L).

Solved cases (5 shown):
compound | parameter.measured | value.reported
COc1ccc(CSCC(=O)[C@H](Cc2ccccc2)NC(=O)[C@H](Cc2ccccc2)NC(=O)OCc2ccccc2)cc1 | pKi | 7.49
CC(C)(C)c1ccc(CSCC(=O)[C@H](Cc2ccccc2)NC(=O)[C@H](Cc2ccccc2)NC(=O)OCc2ccccc2)cc1 | pKi | 7.66
CCOC(=O)C(C)SCC(=O)[C@H](Cc1ccccc1)NC(=O)[C@H](Cc1ccccc1)NC(=O)OCc1ccccc1 (stereo partly drawn) | pKi | 7.43
CCOC(=O)CCSCC(=O)[C@H](Cc1ccccc1)NC(=O)[C@H](CC(C)C)NC(=O)OCc1ccccc1 | pKi | 8.10
CCOC(=O)CSCC(=O)[C@H](Cc1ccccc1)NC(=O)[C@H](Cc1ccccc1)NC(=O)OCc1ccccc1 | pKi | 7.51

[in] Observed pKi on Cruzipain (Trypanosoma cruzi) for `O=C(N[C@@H](Cc1ccccc1)C(=O)N[C@@H](Cc1ccccc1)C(=O)CSCCc1ccccc1)OCc1ccccc1` , please.
[out] 8.38

[in] Observed pKi on Cruzipain (Trypanosoma cruzi) for `CC(C)C[C@H](NC(=O)OCc1ccncc1)C(=O)N[C@@H](Cc1ccccc1)C(=O)CSC(C)(C)C` , please.
[out] 7.85

[in] Observed pKi on Cruzipain (Trypanosoma cruzi) for O=C(N[C@@H](Cc1ccccc1)C(=O)N[C@@H](CCc1ccccc1)C(=O)CSCCCc1ccccc1)OCc1cccnc1 (stereo in doubt; 16d) , please.
[out] 8.27
